# Test system: phospho-AKT in RAW 264.7 cells
# Assay Protocol: PI3Kγ selective cellular assay, phospho-AKT in C5a stimulated RAW 264.7 cells
# Format: cell-based
# Condition Summary: Mus musculus, RAW264.7; RAW 264.7 cell model; range between 100 nM and 1 μM (bounds carry own units)
Metric Name: IC50

>>> df
                                smiles_data                  assayed_target  recorded_measurement
0  C[C@H](Nc1ncnc2scnc12)c1cc2cccc(-c3cncc(N)c3)c2c(=O)n1-c1ccccc1  phospho-AKT in RAW 264.7 cells        100 to 1000 nM
1  CC(C)n1c([C@H](C)Nc2ncnc3scnc23)cc2cccc(-c3ccc(=O)n(C)c3)c2c1=O  phospho-AKT in RAW 264.7 cells        100 to 1000 nM
2  Cc1ncc(-c2cccc3cc([C@H](C)Nc4ncnc5scnc45)n(-c4ccon4)c(=O)c23)cn1  phospho-AKT in RAW 264.7 cells        100 to 1000 nM
3  COc1ncc(-c2cccc3cc([C@H](C)Nc4ncnc5scnc45)n(-c4ccccc4)c(=O)c23)cn1  phospho-AKT in RAW 264.7 cells        100 to 1000 nM

Please look at the following molecule next.
Specify IC50 for "C[C@H](Nc1ncnc2scnc12)c1cc2cccc(Cl)c2c(=O)n1-c1ccon1" and stop. 100 to 1000 nM

###

# Tested on: phospho-AKT in SKOV-3 cells
# Assay Protocol: PI3Kα selective cellular assay, phospho-AKT in SKOV-3 cells
# Type: cell-based
# Condition Summary: Homo sapiens, SK-OV-3; SKOV-3 cell model
pIC50: −log10 of the molar value.
Metric Name: pIC50

Specify pIC50 for "COc1ncc(-c2cccc3cc([C@H](C)Nc4ncnc5scnc45)n(-c4ccccc4)c(=O)c23)cn1" and stop. 5.00 to 6.00
